Could you please report measured pEC50 for the items listed next?
Target: Y4R (Homo sapiens, UniProt P50391)
Sequence (P50391 whole entry): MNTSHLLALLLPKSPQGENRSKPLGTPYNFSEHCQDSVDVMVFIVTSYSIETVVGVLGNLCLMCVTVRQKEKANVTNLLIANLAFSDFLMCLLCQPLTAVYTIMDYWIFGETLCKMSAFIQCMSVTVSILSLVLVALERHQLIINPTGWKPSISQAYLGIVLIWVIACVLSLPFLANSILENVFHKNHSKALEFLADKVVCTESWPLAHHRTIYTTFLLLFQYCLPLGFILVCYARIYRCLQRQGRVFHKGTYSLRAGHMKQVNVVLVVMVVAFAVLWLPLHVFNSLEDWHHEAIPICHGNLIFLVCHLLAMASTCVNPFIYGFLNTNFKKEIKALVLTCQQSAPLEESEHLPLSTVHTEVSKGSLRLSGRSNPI
Experiment: Ca flux assay (FLIPR), Y4R
pEC50: −log10 of the molar value.

mol smiles	meas value
CC[C@H](C)[C@H](NC(C)=O)C(=O)N[C@@H](CCCCN)C(=O)N1CCN(c2nc3ncn(CC(=O)N[C@@H](CCCNC(=N)N)C(=O)N[C@@H](Cc4c[nH]cn4)C(=O)N[C@@H](Cc4ccc(O)cc4)C(=O)N[C@@H](CC(C)C)C(=O)N[C@@H](CC(N)=O)C(=O)N[C@@H](Cc4c[nH]c5ccccc45)C(=O)N[C@H](C(=O)N[C@H](C(=O)N[C@@H](CCCNC(=N)N)C(=O)N[C@@H](CCC(N)=O)C(=O)N(C)[C@@H](CCCNC(=N)N)C(=O)N[C@@H](Cc4ccc(O)cc4)C(N)=O)[C@@H](C)O)C(C)C)c3c(=O)[nH]2)CC1	< 5.05
CC[C@H](C)[C@H](NC(C)=O)C(=O)N[C@@H](CCCCN)C(=O)NCc1ccc(-c2cccc(CC(=O)N[C@@H](CCCNC(=N)N)C(=O)N[C@@H](Cc3c[nH]cn3)C(=O)N[C@@H](Cc3ccc(O)cc3)C(=O)N[C@@H](CC(C)C)C(=O)N[C@@H](CC(N)=O)C(=O)N[C@@H](Cc3c[nH]c4ccccc34)C(=O)N[C@H](C(=O)N[C@H](C(=O)N[C@@H](CCCNC(=N)N)C(=O)N[C@@H](CCC(N)=O)C(=O)N(C)[C@@H](CCCNC(=N)N)C(=O)N[C@@H](Cc3ccc(O)cc3)C(N)=O)[C@@H](C)O)C(C)C)c2)cc1	< 4.52

Now turn to the next compound.
In plain terms, "CC[C@H](C)[C@H](NC(C)=O)C(=O)N[C@@H](CCCCN)C(=O)N1CCCN(c2ccc3ncn(CC(=O)N[C@@H](CCCNC(=N)N)C(=O)N[C@@H](Cc4c[nH]cn4)C(=O)N[C@@H](Cc4ccc(O)cc4)C(=O)N[C@@H](CC(C)C)C(=O)N[C@@H](CC(N)=O)C(=O)N[C@@H](Cc4c[nH]c5ccccc45)C(=O)N[C@H](C(=O)N[C@H](C(=O)N[C@@H](CCCNC(=N)N)C(=O)N[C@@H](CCC(N)=O)C(=O)N(C)[C@@H](CCCNC(=N)N)C(=O)N[C@@H](Cc4ccc(O)cc4)C(N)=O)[C@@H](C)O)C(C)C)c(=O)c3c2)CC1" has a documented pEC50 of < 5.05

---

Target: Y1R (Homo sapiens, UniProt P25929)
Sequence (P25929 1-384): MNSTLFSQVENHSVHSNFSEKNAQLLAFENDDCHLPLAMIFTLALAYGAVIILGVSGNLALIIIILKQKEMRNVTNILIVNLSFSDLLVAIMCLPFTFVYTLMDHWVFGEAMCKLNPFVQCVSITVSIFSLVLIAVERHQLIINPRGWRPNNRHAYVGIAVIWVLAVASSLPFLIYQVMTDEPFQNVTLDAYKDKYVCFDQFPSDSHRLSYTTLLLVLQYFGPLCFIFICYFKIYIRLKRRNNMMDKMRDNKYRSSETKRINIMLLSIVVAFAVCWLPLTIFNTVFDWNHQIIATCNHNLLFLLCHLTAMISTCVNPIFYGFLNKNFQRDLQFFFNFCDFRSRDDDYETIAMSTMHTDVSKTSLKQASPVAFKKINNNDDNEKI
Test: Ca flux assay (FLIPR), Y1R
pEC50: −log10 of the molar value.
recorded metric: pEC50

Reported pEC50 ( "CC[C@H](C)[C@H](NC(C)=O)C(=O)N[C@@H](CCCCN)C(=O)N1CCN(c2nc(N)c3c(ncn3CC(=O)N[C@@H](CCCNC(=N)N)C(=O)N[C@@H](Cc3c[nH]cn3)C(=O)N[C@@H](Cc3ccc(O)cc3)C(=O)N[C@@H](CC(C)C)C(=O)N[C@@H](CC(N)=O)C(=O)N[C@@H](Cc3c[nH]c4ccccc34)C(=O)N[C@H](C(=O)N[C@H](C(=O)N[C@@H](CCCNC(=N)N)C(=O)N[C@@H](CCC(N)=O)C(=O)N(C)[C@@H](CCCNC(=N)N)C(=O)N[C@@H](Cc3ccc(O)cc3)C(N)=O)[C@@H](C)O)C(C)C)n2)CC1" ) = < 5.30

Data provenance: patent US8299023B2
